Tested on: Pseudomonas aeruginosa (ATCC 27853)
Details: standard strain
Ends that are not written are not given here.
Recorded metric: MIC P. aerugmosa ATCC27853 (µM)
State just the number; it will be interpreted in µM.

H-PWRLSLHL-NH2 [Compound 12]    32
H-PFRLSLRL-NH2 [Compound 6]    32
H-PFRLRLRL-NH2 [Compound 7]    8
PWRLRLHL-NH2 [Compound 13]    4
H-PFKLKLHL-NH2 [Compound 1]    32
H-PFRLSLHL-NH2 [Compound 4]    32

Now for a further substance.
Noted for PWKLSLHL-NH2 [Compound 8] : its MIC P. aerugmosa ATCC27853 reads 16
